Entry source: the Human Domainome abundance scans (Beltran et al. 2025)

B1: FERM and PDZ domain-containing protein 4, residues 75 to 154; numbered along this chain, Q14CM0 (parent)
chain: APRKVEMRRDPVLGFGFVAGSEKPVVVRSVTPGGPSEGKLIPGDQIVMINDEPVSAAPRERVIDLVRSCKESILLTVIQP

# Variants of: B1
# Test Protocol: abundance fitness (aPCA) (normalised: wild type 0, dead -1); higher = more abundant; growth selection in yeast, the domain comes from the species named
# Recorded Conditions: Homo sapiens
Measured Parameter: abundance fitness
Answer field: number only, no words.

> print(dat)
   variant.string  reported.result
1            I73T           -0.202
2            T31W           -0.196
3            P11L           -0.143

Query :: Given the variant D64V , what is its reported abundance fitness?
Result :: -0.593

Query :: What would you report for S72N ?
Result :: -0.028
